- SUBJECT_OF_TEST: MAO-B (Rattus norvegicus)
- Sequence (P19643 whole entry): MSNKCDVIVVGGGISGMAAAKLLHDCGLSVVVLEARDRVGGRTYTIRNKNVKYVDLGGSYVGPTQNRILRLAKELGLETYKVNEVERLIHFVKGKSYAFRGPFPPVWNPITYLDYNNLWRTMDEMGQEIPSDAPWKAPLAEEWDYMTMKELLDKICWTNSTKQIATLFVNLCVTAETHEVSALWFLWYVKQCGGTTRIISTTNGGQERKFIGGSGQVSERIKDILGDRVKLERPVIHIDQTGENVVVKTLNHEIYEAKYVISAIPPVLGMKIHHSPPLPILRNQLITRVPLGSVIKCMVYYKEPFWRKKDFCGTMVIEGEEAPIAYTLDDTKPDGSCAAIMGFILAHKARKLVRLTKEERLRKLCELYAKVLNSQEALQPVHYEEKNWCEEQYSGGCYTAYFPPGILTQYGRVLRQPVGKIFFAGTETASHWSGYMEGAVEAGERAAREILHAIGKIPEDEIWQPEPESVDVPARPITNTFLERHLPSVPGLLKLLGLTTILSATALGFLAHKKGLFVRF
- ASSAY_TEXT: Inhibition of MAO activity in vitro, PEA as substrate
- Type: biochemical
- Design: The MAO enzyme source was a homogenate of rat brain in 0.3M sucrose; from tissue; host or cells: rat brain homogenate, 600 g supernatant
- CONDITION_DETAILS: rat brain homogenate, read-out: MAO-B Inhibition In vitro IC50
- Procedure: Substrate concentrations used were 50 μM (PEA) and 1 mM (5-HT).
Documented pIC50 across a set of compounds
// field semantics: pIC50 = negative decimal log of concentration (mol/L)

| COMPOUND | OBSERVED_RESULT |
| --- | --- |
| C#CCNC1CCc2ccc(OC(=O)NCCC)cc21 (centres unmarked) | 4.60 |
| C#CCNC1CCc2ccc(OC(=O)N(C)C3CCCCC3)cc21 (centres unmarked) | 5.00 |
| C#CCNC1CCc2ccc(OC(=O)N(C)c3ccccc3)cc21 (centres unmarked) | 4.00 |
| C#CCNC1CCc2ccc(OC(=O)N(C)Cc3ccccc3)cc21 (centres unmarked) | 3.92 |

Continue with the next compound.
Supply reported pIC50 belonging to this compound: C#CCNC1CCc2ccc(OC(=O)N(C)c3ccc(OC)cc3)cc21 (centres unmarked)
3.30

====

- SUBJECT_OF_TEST: UniProt:P19643
- ASSAY_TEXT: Inhibition of MAO activity in vitro, PEA as substrate
- Format: biochemical
- Design: The MAO enzyme source was a homogenate of rat brain in 0.3M sucrose; from tissue; host or cells: rat brain homogenate, 600 g supernatant
- CONDITION_DETAILS: MAO-B Inhibition In vitro IC50, rat brain homogenate
Structures can show the parent of a compound that is named as a salt.
Recorded measurements of log10 IC50, one per entry
Heads up, the numbers here are log10 of IC50 in µM units.

Some entries whose results are on file:
| COMPOUND | log10 IC50 |
| --- | --- |
| C#CCNC1CCc2ccc(OC(=O)N(C)CCC)cc21 (stereo not drawn) [Compound 26] | 2.42 |
| C#CCNC1CCc2c(OC(=O)N(C)CC)cccc21 (stereo not drawn) [Compound 35] | 2.00 |
| C#CCNC1CCc2ccc(OC(=O)N(C)C)cc21 (stereo not drawn) [Compound 23] | 2.78 |
| C#CCN(C)C1CCc2ccc(OC(=O)N(C)C)cc21 (stereo not drawn) [Compound 29] | 1.60 |
| C#CCNC1CCc2ccc(OC(=O)N(C)C)cc21 (stereo not drawn) [Compound 24, mesylate] | 2.88 |

Fill in log10 IC50 for record C#CCN(C)C1CCc2cccc(OC(=O)N(C)C)c21 (stereo not drawn) [Compound 32]
2.70

Using the record for C#CCNC1CCc2c(OC(=O)N(C)C)cccc21 (stereo not drawn) [Compound 34] , state its measured log10 IC50.
2.00

====

- SUBJECT_OF_TEST: MAO-B (Mus musculus, UniProt Q8BW75)
- Construct: from tissue; host or cells: mouse brain
- Sequence (Q8BW75 whole entry): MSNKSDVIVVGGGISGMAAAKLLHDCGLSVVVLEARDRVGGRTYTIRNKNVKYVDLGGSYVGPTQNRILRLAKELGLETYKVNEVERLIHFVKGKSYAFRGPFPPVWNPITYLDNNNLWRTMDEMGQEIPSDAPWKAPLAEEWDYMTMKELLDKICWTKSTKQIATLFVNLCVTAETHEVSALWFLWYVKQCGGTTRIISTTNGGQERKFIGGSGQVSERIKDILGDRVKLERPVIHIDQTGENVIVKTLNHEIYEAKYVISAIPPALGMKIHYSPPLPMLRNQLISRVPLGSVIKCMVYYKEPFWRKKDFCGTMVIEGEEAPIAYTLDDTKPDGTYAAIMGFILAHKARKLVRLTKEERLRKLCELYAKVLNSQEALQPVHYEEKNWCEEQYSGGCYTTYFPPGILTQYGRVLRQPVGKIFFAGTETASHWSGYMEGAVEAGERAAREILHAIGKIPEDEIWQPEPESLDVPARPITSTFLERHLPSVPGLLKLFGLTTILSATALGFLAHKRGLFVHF
- ASSAY_TEXT: Inhibition of MAO activity ex vivo (brain)
- Assay type: in vivo, mice
- CONDITION_DETAILS: mice, brain tissue
Counter-ions that a name gives are not always drawn.
Listed next: entries and their corresponding MAO-B Inhibition Ex vivo ED50.

| COMPOUND | MAO-B Inhibition Ex vivo ED50 |
| --- | --- |
| C#CCNC1CCc2ccc(OC(=O)N(C)CCCCCC)cc21 (centres unmarked) [Compound 36] | >100 µmol/kg |
| C#CCNC1CCc2ccc(OC(=O)N(C)Cc3ccccc3)cc21 (centres unmarked) [Compound 63] | >300 µmol/kg |
| C#CCNC1CCc2ccc(OC(=O)N(C)C)cc21 (single isomer, unassigned) [Compound 54] | >100 µmol/kg |
| C#CCN(C)C1CCc2ccc(OC(=O)N(C)C)cc21 (centres unmarked) [Compound 29] | 30 µmol/kg |
| CCN(C)C(=O)Oc1ccc2c(c1)C(NC)CC2 (centres unmarked) [Compound 10] | >175 µmol/kg |

Output reported MAO-B Inhibition Ex vivo ED50 of the compound C#CCNC1CCc2ccc(OC(=O)N(C)C3CCCCC3)cc21 (centres unmarked) [Compound 38] on MAO-B (Mus musculus, UniProt Q8BW75).
>400 µmol/kg

Fill in: MAO-B Inhibition Ex vivo ED50 on MAO-B (Mus musculus, UniProt Q8BW75), entry C#CCNC1CCc2cccc(OC(=O)N(C)C)c21 (centres unmarked) [Compound 27]
>>160 μmoles/kg

Give measured MAO-B Inhibition Ex vivo ED50 for C#CCNC1CCc2ccc(OC(=O)N(C)CCCC)cc21 (centres unmarked) [Compound 81] (MAO-B (Mus musculus, UniProt Q8BW75)).
>>100 μmoles/kg

Give measured MAO-B Inhibition Ex vivo ED50 for CN(C)C(=O)Oc1ccc2c(c1)C(N)CC2 (centres unmarked) [Compound 1] (MAO-B (Mus musculus, UniProt Q8BW75)).
>>80 μmoles/kg

Give MAO-B (Mus musculus, UniProt Q8BW75) MAO-B Inhibition Ex vivo ED50 for the following compound: C#CCNC1CCc2ccc(OC(=O)N(C)c3ccc(OC)cc3)cc21 (centres unmarked) [Compound 61]
>100 µmol/kg

# return MAO-B Inhibition Ex vivo ED50 of C#CCNC1CCc2cccc(OC(=O)N(C)CC)c21 (centres unmarked) [Compound 33] (system: MAO-B (Mus musculus, UniProt Q8BW75))
1000 µmol/kg

Fetch value of MAO-B Inhibition Ex vivo ED50 on MAO-B (Mus musculus, UniProt Q8BW75) for CCN(C)C(=O)Oc1cccc2c1C(N)CC2 (centres unmarked) [Compound 5] .
>>277 μmoles/kg

Provide the reported MAO-B Inhibition Ex vivo ED50 (system: MAO-B (Mus musculus, UniProt Q8BW75)) for C#CCN(C)C1CCc2cccc(OC(=O)N(C)C)c21 (centres unmarked) [Compound 32]
>>20 μmoles/kg

Print MAO-B (Mus musculus, UniProt Q8BW75) MAO-B Inhibition Ex vivo ED50 for C#CCNC1CCc2ccc(OC(=O)N(C)C)cc21 (centres unmarked) [Compound 24, mesylate] .
100 µmol/kg

====

- SUBJECT_OF_TEST: Human erythrocyte acetylcholinesterase (Homo sapiens)
- Construct: Human erythrocyte acetylcholinesterase (type XIII, Sigma Israel); purchased Sigma Israel type XIII; host or cells: human erythrocytes
- Sequence (P22303 32-617 isoform P22303-2 limits assumed): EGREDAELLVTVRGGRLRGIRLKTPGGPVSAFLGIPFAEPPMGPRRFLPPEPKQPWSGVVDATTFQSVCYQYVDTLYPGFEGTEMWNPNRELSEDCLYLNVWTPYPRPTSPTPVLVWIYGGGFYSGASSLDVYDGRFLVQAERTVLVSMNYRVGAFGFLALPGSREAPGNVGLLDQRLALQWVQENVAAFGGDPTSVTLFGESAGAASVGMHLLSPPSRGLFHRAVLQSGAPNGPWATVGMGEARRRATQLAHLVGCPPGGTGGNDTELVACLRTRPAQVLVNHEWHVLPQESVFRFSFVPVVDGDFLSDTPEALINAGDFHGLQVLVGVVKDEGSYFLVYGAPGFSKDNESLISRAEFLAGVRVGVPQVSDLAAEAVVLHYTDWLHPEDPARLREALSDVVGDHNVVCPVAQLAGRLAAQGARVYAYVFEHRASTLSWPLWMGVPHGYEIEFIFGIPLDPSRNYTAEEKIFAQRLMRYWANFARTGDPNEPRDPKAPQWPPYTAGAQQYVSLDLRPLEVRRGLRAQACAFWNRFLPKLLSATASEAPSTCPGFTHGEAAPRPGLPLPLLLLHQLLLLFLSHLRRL
- ASSAY_TEXT: biochemical
- Type: biochemical
- CONDITION_DETAILS: AChE Inhibition In vitro IC50
Structures can show the parent of a compound that is named as a salt.
Please use true for IC50 under 2 µM and false for everything else, ties included.

Use the examples below as a reference point.
| COMPOUND | CLASS_ASSIGNMENT |
| --- | --- |
| C#CCNC1CCc2c(OC(=O)N(C)CC)cccc21 (centres unmarked) [Compound 35] | false |
| C#CCN(C)C1CCc2ccc(OC(=O)N(C)C)cc21 (centres unmarked) [Compound 29] | false |
| C#CCNC1CCc2ccc(OC(=O)N(C)CC)cc21 (centres unmarked) [Compound 60] | false |
| C#CCNC1CCc2ccc(OC(=O)N(C)CC)cc21 (centres unmarked) [Compound 25, HCl] | false |

Let us examine a further case.
Take the compound C#CCNC1CCc2ccc(OC(=O)N(C)c3ccccc3)cc21 (centres unmarked) [Compound 62] and say whether its IC50 is less than 2 µM.
true

====

- SUBJECT_OF_TEST: MAO-A (Rattus norvegicus, UniProt P21396)
- Sequence (P21396 whole entry): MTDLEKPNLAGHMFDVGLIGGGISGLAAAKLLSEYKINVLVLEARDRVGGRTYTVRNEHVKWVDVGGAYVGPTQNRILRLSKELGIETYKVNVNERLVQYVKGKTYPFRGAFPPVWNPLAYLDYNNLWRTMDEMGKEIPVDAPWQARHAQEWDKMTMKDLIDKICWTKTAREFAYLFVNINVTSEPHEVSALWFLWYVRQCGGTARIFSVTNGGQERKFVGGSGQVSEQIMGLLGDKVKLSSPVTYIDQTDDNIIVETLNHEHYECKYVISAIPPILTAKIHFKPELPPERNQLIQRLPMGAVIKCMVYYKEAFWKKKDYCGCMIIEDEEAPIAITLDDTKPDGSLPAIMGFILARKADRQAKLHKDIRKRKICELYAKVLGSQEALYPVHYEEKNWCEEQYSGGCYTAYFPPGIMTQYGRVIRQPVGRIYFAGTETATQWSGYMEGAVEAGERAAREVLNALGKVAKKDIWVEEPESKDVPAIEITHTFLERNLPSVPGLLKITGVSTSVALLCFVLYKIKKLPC
- ASSAY_TEXT: Inhibition of MAO activity in vitro, 5-HT as substrate
- Assay type: biochemical
- Set-up: The MAO enzyme source was a homogenate of rat brain in 0.3M sucrose; from tissue; host or cells: rat brain homogenate, 600 g supernatant
- CONDITION_DETAILS: rat brain homogenate, 5-HT substrate; read-out: MAO-A Inhibition In vitro IC50
pIC50: −log10 of the molar value.
Note to self: values exactly at 4 are T. So pIC50 at or above 4 is T, below is F.

Recorded results for 3 compounds are shown here.
| COMPOUND | CLASS_ASSIGNMENT |
| --- | --- |
| C#CCNC1CCc2ccc(OC(=O)N(C)Cc3ccccc3)cc21 (stereo not shown) | T |
| C#CCNC1CCc2ccc(OC(=O)N(C)C3CCCCC3)cc21 (stereo not shown) | F |
| CCCN(C)C(=O)Oc1ccc2c(c1)C(N)CC2 (stereo not shown) | T |

Would you say CCN(C)C(=O)Oc1ccc2c(c1)C(NC)CC2 (stereo not shown) shows pIC50 at minimum 4?
T

Form field: pIC50 at least 4? Entry: CNC1CCc2ccc(OC(=O)N(C)C)cc21 (stereo not shown)
T

Decide: pIC50 of C#CCNC1CCc2ccc(OC(=O)N(C)c3ccc(OC)cc3)cc21 (stereo not shown) >= 4?
F

====

- SUBJECT_OF_TEST: Human erythrocyte acetylcholinesterase (Homo sapiens)
- Construct: Human erythrocyte acetylcholinesterase (type XIII, Sigma Israel); purchased Sigma Israel type XIII; host or cells: human erythrocytes
- ASSAY_TEXT: biochemical
- Assay type: biochemical
- CONDITION_DETAILS: read-out: AChE Inhibition In vitro IC50
REPORTED_METRIC: log10 of IC50 (log10 of the value in µM)
Units before log transform: µM; reported quantity: IC50; transform: log10.

Here is how some compounds turned out for log10 of IC50.
| COMPOUND | SUBJECT_OF_TEST | REPORTED_METRIC | OBSERVED_RESULT |
| --- | --- | --- | --- |
| C#CCNC1CCc2ccc(OC(=O)NCCC)cc21 (stereo not drawn) | Human erythrocyte acetylcholinesterase (Homo sapiens) | log10 of IC50 | 0.38 |
| C#CCN(C)C1CCc2ccc(OC(=O)N(C)CC)cc21 (stereo not drawn) | Human erythrocyte acetylcholinesterase (Homo sapiens) | log10 of IC50 | 3.11 |
| C#CCNC1CCc2ccc(OC(=O)N(C)CCCC)cc21 (stereo not drawn) [Compound 87] | Human erythrocyte acetylcholinesterase (Homo sapiens) | log10 of IC50 | 0.96 |

Consider the compound CCCN(C)C(=O)Oc1ccc2c(c1)C(N)CC2 (stereo not drawn) and give its recorded log10 of IC50.
0.86

Give a short answer stating reported log10 of IC50 for CN(C(=O)Oc1ccc2c(c1)C(N)CC2)C1CCCCC1 (stereo not drawn) .
0.60

Give recorded log10 of IC50. C#CCNC1CCc2ccc(OC(=O)N(C)CCCC)cc21 (stereo not drawn) [Compound 86]
1.02
